Source of measurements: paper PMC9586926

- System: E. coli
- method: MIC, broth microdilution
- Assay type: cell-based, Escherichia coli
- runConditions: broth microdilution in LB, 18–24 h, 37 °C; n = 4 strains; published data in bold (not discernible)
Where a SMILES comes first, the peptide text is derived from it. [ ]: non-standard residue; d: D form. The star is where a group is joined. 12Ado = NCCCCCCCCCCCC(=O)O; Decanoyl = CCCCCCCCCC(=O)*; Orn = NCCC[C@H](N)C(=O)O; Dab = NCC[C@H](N)C(=O)O; Dap = NC[C@H](N)C(=O)O
For each entry below, report its MIC E. coli (n=4) value.

CCCCCCCCCC(=O)N[C@@H](CN)C(=O)N[C@@H](CN)C(=O)NCCCCCCCCCCCC(=O)N[C@@H](CN)C(N)=O [C10PPc12P] (Decanoyl-[Dap][Dap][12Ado][Dap]-NH2)
12.5 to 25 µM
CCCCCCCCCC(=O)N[C@@H](CCCN)C(=O)N[C@@H](CCCN)C(=O)NCCCCCCCCCCCC(=O)N[C@@H](CCCN)C(N)=O [C10OOc12O] (Decanoyl-[Orn][Orn][12Ado][Orn]-NH2)
≥ 50 µM
CCCCCCCCCC(=O)N[C@@H](CCCCN)C(=O)N[C@@H](CCCCN)C(=O)NCCCCCCCCCCCC(=O)N[C@@H](CCCCN)C(N)=O [C10KKc12K] (Decanoyl-KK[12Ado]K-NH2)
≥ 50 µM

Look at this compound and give its reported MIC E. coli (n=4). CCCCCCCCCC(=O)N[C@@H](CCN)C(=O)N[C@@H](CCN)C(=O)NCCCCCCCCCCCC(=O)N[C@@H](CCN)C(N)=O [C10BBc12B] (Decanoyl-[Dab][Dab][12Ado][Dab]-NH2)
50 µM

----------
For each entry below, report its LC50 Erythrocytes (50% hemolysis) value.
- System: murine RBC
- method: Hemolysis
- Assay type: cell-based
- runConditions: 1% hematocrit murine RBC, 3 h, 37 °C
Where a SMILES comes first, the peptide text is derived from it. [ ]: non-standard residue; d: D form. The star is where a group is joined. 12Ado = NCCCCCCCCCCCC(=O)O; Decanoyl = CCCCCCCCCC(=O)*; Orn = NCCC[C@H](N)C(=O)O; Dab = NCC[C@H](N)C(=O)O; Dap = NC[C@H](N)C(=O)O

CCCCCCCCCC(=O)N[C@@H](CN)C(=O)N[C@@H](CN)C(=O)NCCCCCCCCCCCC(=O)N[C@@H](CN)C(N)=O [C10PPc12P] (Decanoyl-[Dap][Dap][12Ado][Dap]-NH2)
26 µM

Provide the reported LC50 Erythrocytes (50% hemolysis) of each entry below, same order.
1. CCCCCCCCCC(=O)N[C@@H](CCN)C(=O)N[C@@H](CCN)C(=O)NCCCCCCCCCCCC(=O)N[C@@H](CCN)C(N)=O [C10BBc12B] (Decanoyl-[Dab][Dab][12Ado][Dab]-NH2)
2. CCCCCCCCCC(=O)N[C@@H](CCCN)C(=O)N[C@@H](CCCN)C(=O)NCCCCCCCCCCCC(=O)N[C@@H](CCCN)C(N)=O [C10OOc12O] (Decanoyl-[Orn][Orn][12Ado][Orn]-NH2)
3. CCCCCCCCCC(=O)N[C@@H](CCCCN)C(=O)N[C@@H](CCCCN)C(=O)NCCCCCCCCCCCC(=O)N[C@@H](CCCCN)C(N)=O [C10KKc12K] (Decanoyl-KK[12Ado]K-NH2)

> 50 µM
> 50 µM
> 50 µM
